TESTED SYSTEM: T1, hCD137-mFc-Avi (human, UniProt Q07011 24-186)
T1 construct: dimer; also called human CD137-mFc-Avi; human CD137-mFc
ASSAY OVERVIEW: cell-based, 100 nM hCD137-mFc-Avi with 200 nM antibody, competitor human CD137L on DO11.10 cells, GMFI normalised to G1/11D4 = 0 and G1/MOR7480.1 = 100; mean of n=2
MEASURED PROPERTY: % CD137 ligand blocking activity (%)
API: value field is a number in %; no unit string.

BINDER: FS20-22-49AA/FS30-10-3 (bispecific antibody, human IgG1, kappa, L234A L235A, V domains shown, M97 (Kabat) to N against FS30-10; also called FS30-10-3 in mAb^2 format) VH: EVQLLESGGGLVQPGGSLRLSCAASGFTFSSYDMSWVRQAPGKGLEWVSDIDPTGSKTDYADSVKGRFTISRDNSKNTLYLQMNSLRAEDTAVYYCARDLNVYGFDYWGQGTLVTVSS VL: EIVLTQSPGTLSLSPGERATLSCRASQSVSSSYLAWYQQKPGQAPRLLIYGASSRATGIPDRFSGSGSGTDFTLTISRLEPEDFAVYYCQQSYSYPVTFGQGTKVEIKR
% CD137 ligand blocking activity [%]: 65

Which % CD137 ligand blocking activity reading was recorded for the binder FS20-22-49AA/FS30-10-12 (bispecific antibody, human IgG1, kappa, L234A L235A, V domains shown, M97 (Kabat) to T against FS30-10; also called FS30-10-12 in mAb^2 format) VH: EVQLLESGGGLVQPGGSLRLSCAASGFTFSSYDMSWVRQAPGKGLEWVSDIDPTGSKTDYADSVKGRFTISRDNSKNTLYLQMNSLRAEDTAVYYCARDLTVYGFDYWGQGTLVTVSS VL: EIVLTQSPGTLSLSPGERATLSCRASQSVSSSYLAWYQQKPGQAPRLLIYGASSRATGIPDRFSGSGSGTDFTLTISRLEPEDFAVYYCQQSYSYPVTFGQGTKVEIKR ?
46
